The reader will find reported pIC50 values listed item by item below.
# assay.system: Syk (Homo sapiens)
# Construct: purchased Carna Biosciences
# method.notes: Syk HTRF assay
# Assay type: biochemical
# settings: IC50 activity level, read-out: Activity Level
pIC50: −log10 of the molar value.

> print(dat)
                                   compound        result
1  CNC(=O)c1ccc(Nc2nc3cccc(NC4CCOC4)n3n2)cc1 (stereo not drawn) [Example 441]  5.00 to 6.00

Field pIC50 (system: Syk (Homo sapiens)) for entry c1ccc(Nc2nc3cccc(-c4ccnc(N5CCNCC5)c4)n3n2)cc1 [Example 520] = 5.00 to 6.00

Field pIC50 (system: Syk (Homo sapiens)) for entry CN(C)Cc1nc2cc(-c3cccc4nc(Nc5ccccc5)nn34)ccc2[nH]1 [Example 486] = 6.60 to 11.30

Field pIC50 (system: Syk (Homo sapiens)) for entry OC[C@@H](Nc1cccc2nc(Nc3ccc(C(F)(F)F)cc3)nn12)c1ccccc1 [Example 413] = 5.00 to 6.00

Field pIC50 (system: Syk (Homo sapiens)) for entry OC[C@H]1CC[C@H](Nc2cccc3nc(Nc4ccc(C(F)(F)F)cc4)nn23)CC1 (stereo in doubt) [Example 414] = 6.00 to 6.30

Field pIC50 (system: Syk (Homo sapiens)) for entry OCc1nc2ccc(-c3cccc4nc(Nc5ccc(C(F)(F)F)cc5)nn34)cc2[nH]1 [Example 409] = 6.60 to 11.30

Field pIC50 (system: Syk (Homo sapiens)) for entry c1ccc(Nc2nc3cccc(Oc4ccccc4)n3n2)cc1 [Example 503] = 5.00 to 6.00

Field pIC50 (system: Syk (Homo sapiens)) for entry O[C@H]1CC[C@@H](Nc2cccc3nc(Nc4ccc(C(F)(F)F)cc4)nn23)CC1 [Example 453] = 6.60 to 11.30

Field pIC50 (system: Syk (Homo sapiens)) for entry c1ccc(Nc2nc3cccc(CC4CCCNC4)n3n2)cc1 (stereo not drawn) [Example 478] = 6.30 to 6.60

Field pIC50 (system: Syk (Homo sapiens)) for entry O=C1NCc2ccc(-c3cccc4nc(Nc5ccccc5)nn34)cc21 [Example 500] = 6.00 to 6.30

Field pIC50 (system: Syk (Homo sapiens)) for entry Nc1n[nH]c2ccc(-c3cccc4nc(Nc5ccccc5)nn34)cc12 [Example 511] = 6.30 to 6.60
